Listed next: entries and their corresponding pIC50.
Biological target: PDE4
Assay: Inhibition of PDE4, radioenzymatic phosphodiesterase assay
Type: biochemical, bovine
Settings: Table 1, formula (III); 1 μM cyclic AMP
Answer as the number alone; pIC50 is minus log10 of concentration in mol/L.

Observe how each entry below is paired with its result.
{"molecule": "COc1cc2c(cc1OC)C(c1ccc(Br)cc1)=NN(C)C(=O)C2 [IIIan]", "target.or.system": "PDE4", "pIC50": 5.74}
{"molecule": "COc1cccc(-c2ccc(C3=NN(C)C(=O)Cc4cc(OC)c(OC)cc43)cc2)c1 [IIIaj]", "target.or.system": "PDE4", "pIC50": 5.57}

Let us move to another entry and its pIC50.
Note pIC50 for the molecule shown: COc1cc2c(cc1OC)C(c1ccc(-c3ccc(C)cc3)cc1)=NN(C)C(=O)C2 [IIIas]
5.54
